assay.explanation: Phase 1 single ascending dose study of grapiprant OPC: pharmacokinetics
Format: in vivo, human
measurement.setup: human, serum, oral, 30 mg, cohorts with clear bi-exponential decline (30 mg and above); read-out: mean terminal phase T1/2
experimental.endpoint: half-life

[in] Quick one: give measured half-life for CCc1nc2c(C)nc(C)cc2n1-c1ccc(CCNC(=O)NS(=O)(=O)c2ccc(C)cc2)cc1 [Grapiprant]
[out] 6.14 to 9.41 h

====

assay.explanation: Phase 1 single ascending dose study of grapiprant OPC: pharmacokinetics
Assay type: in vivo, human
measurement.setup: human, oral; single 300 mg dose as OPC, fasted, healthy adults, serum, mean
experimental.endpoint: AUC(0-t) (ng·h/mL)
Field format: number, assumed ng·h/mL, no unit text.

[in] Return reported AUC(0-t). Input compound: CCc1nc2c(C)nc(C)cc2n1-c1ccc(CCNC(=O)NS(=O)(=O)c2ccc(C)cc2)cc1
[out] 31200
